These data points were gathered from ChEMBL document CHEMBL1136786.

pIC50: −log10 of the molar value.
As an illustration, consider measured pIC50 for molecules on Sodium-dependent serotonin transporter (Rattus norvegicus, UniProt P31652).
Sequence (P31652 whole entry): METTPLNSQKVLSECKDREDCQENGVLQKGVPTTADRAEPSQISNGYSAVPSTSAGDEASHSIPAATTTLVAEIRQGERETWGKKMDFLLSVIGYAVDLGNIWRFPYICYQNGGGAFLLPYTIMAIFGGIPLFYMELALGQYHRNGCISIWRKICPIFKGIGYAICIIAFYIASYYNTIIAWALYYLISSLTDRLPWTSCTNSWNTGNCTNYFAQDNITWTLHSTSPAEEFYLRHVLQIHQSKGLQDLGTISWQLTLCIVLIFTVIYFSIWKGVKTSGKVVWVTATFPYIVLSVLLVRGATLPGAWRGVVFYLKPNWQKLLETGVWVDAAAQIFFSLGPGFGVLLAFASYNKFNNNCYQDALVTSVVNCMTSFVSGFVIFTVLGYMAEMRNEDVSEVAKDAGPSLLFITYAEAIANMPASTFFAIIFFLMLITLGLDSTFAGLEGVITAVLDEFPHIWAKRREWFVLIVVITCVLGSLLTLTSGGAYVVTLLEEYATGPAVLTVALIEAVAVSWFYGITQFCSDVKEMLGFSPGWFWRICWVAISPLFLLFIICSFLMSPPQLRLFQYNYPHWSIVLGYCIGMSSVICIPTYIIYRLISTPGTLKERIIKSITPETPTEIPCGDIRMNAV
observed-property: pIC50

1) COC(=O)C1C2CC[C@H](C[C@@H]1c1ccc(C)c(F)c1)N2 (stereo not given in full) | 7.01
2) Cc1ccc([C@H]2C[C@H]3CCC(C2c2ccccc2)N3C)cc1 (stereo not given in full) | 4.96
3) Cc1ccc([C@H]2C[C@H]3CCC(C2C(=O)OC(C)C)N3C)cc1 (stereo not given in full) | 5.22
4) CN(C)C(=O)C1C2CC[C@H](C[C@@H]1c1ccc(Cl)cc1)N2C (stereo not given in full) | 5.97
5) CCc1ccc([C@H]2C[C@H]3CCC(N3)C2C(=O)OC)cc1I (stereo not given in full) | 9.16
6) COC(=O)C1C2CC[C@H](C[C@@H]1c1ccc(C)cc1)N2 (stereo not given in full) | 6.30
7) COC(=O)C1C2CC[C@H](C[C@H]1c1ccc(Br)cc1)N2C (stereo not given in full) | 7.97
8) CN1C2CC[C@@H]1C[C@H](c1ccc(Cl)cc1)C2C(=O)N1CCCC1 (stereo not given in full) | 4.91
9) C=C(C)c1ccc([C@H]2C[C@H]3CCC(N3)C2C(=O)OC)cc1 (stereo not given in full) | 9.22
10) COC(=O)C1C2CC[C@H](C[C@H]1c1ccc(Cl)c(Cl)c1)N2C (stereo not given in full) | 8.50
11) COC(=O)C1C2CC[C@H](C[C@@H]1c1ccc(Cl)c(C)c1)N2C (stereo not given in full) | 7.98
12) CN1C2CC[C@@H]1C[C@H](c1ccc(Cl)cc1)C2C(=O)OCCc1ccc(N=S)cc1 (stereo not given in full) | 8.15
13) CCc1ccc([C@H]2C[C@H]3CCC(N3)C2C(=O)OC)cc1 (stereo not given in full) | 8.09
14) Cc1ccc(-c2cc(C3C4CC[C@H](C[C@@H]3c3ccc(Cl)cc3)N4C)on2)cc1 (stereo not given in full) | 5.24
15) COC(=O)C1C2CC[C@H](C[C@@H]1c1cccc(I)c1)N2 (stereo not given in full) | 7.41
